assay target: HIV-1 reverse transcriptase (HIV-1, UniProt P04585;P04585 P04585:588-1147,P04585:588-1027)
assay explanation: filter; HRT buffer, 6 mM MgCl2, 37 C
assay setup: tags: overexpressed in E. coli, purified per Davies et al. 1991; label: 5'-32P; intramolecular primer:template junction; AA/CG internal loop
pKd: −log10 of the molar value.
measurement type: pKd

query: Fill blank: measured pKd of the binder RT26 (ssDNA) DNA: ATCCGCCTGATTAGCGATACTTACGTGAGCGTGCTGTCCCCTAAAGGTGATACGTCACTTGAGCAAAATCACCTGCAGGGG is ____.
result: ~9.00
